# METHOD_NOTES: Example 7: Phase III clinical study, plasma pharmacokinetics of TP-1
# Format: in vivo, human
# CONDITIONS: human, plasma, mometasone furoate in plasma, patients receiving TP-1, Day 1; read-out: Cmax, Geo Mean (Geo CV%)
MEASURED_ATTRIBUTE: Cmax (pg/mL)
Value expressed in pg/mL; do not type the unit.

Requested field: Cmax. Item: C[C@@H]1C[C@H]2[C@@H]3CCC4=CC(=O)C=C[C@]4(C)[C@@]3(Cl)[C@@H](O)C[C@]2(C)[C@@]1(OC(=O)c1ccco1)C(=O)CCl [Mometasone furoate]
6.27

###

# METHOD_NOTES: Example 7: Phase III clinical study, plasma pharmacokinetics of TP-1
# Format: in vivo, human
# CONDITIONS: human, plasma, olopatadine in plasma, patients receiving TP-1, Day 1; read-out: Cmax, Mean (SD)
MEASURED_ATTRIBUTE: Cmax (ng/mL)
Value expressed in ng/mL; do not type the unit.

Requested field: Cmax. Item: CN(C)CC/C=C1/c2ccccc2COc2ccc(CC(=O)O)cc21
19.8

###

# METHOD_NOTES: Example 7: Phase III clinical study, plasma pharmacokinetics of TP-1
# Type: in vivo, human
# CONDITIONS: human, plasma, mometasone furoate in plasma, patients receiving TP-1, Day 8 (steady state); read-out: AUCtau, Min-Max
MEASURED_ATTRIBUTE: AUC

Requested field: AUC. Item: C[C@@H]1C[C@H]2[C@@H]3CCC4=CC(=O)C=C[C@]4(C)[C@@]3(Cl)[C@@H](O)C[C@]2(C)[C@@]1(OC(=O)c1ccco1)C(=O)CCl [Mometasone furoate]
0.0257 to 0.124 ng·h/mL

###

# METHOD_NOTES: Example 7: Phase III clinical study, plasma pharmacokinetics of TP-1
# Format: in vivo, human
# CONDITIONS: human, plasma, olopatadine in plasma, patients receiving TP-1, Day 1; read-out: Cmax, Min-Max
MEASURED_ATTRIBUTE: Cmax

Requested field: Cmax. Item: CN(C)CC/C=C1/c2ccccc2COc2ccc(CC(=O)O)cc21
8.7 to 31.6 ng/mL

###

# METHOD_NOTES: Example 7: Phase III clinical study, plasma pharmacokinetics of TP-1
# Type: in vivo, human
# CONDITIONS: human, plasma, mometasone furoate in plasma, patients receiving TP-1, Day 1; read-out: AUCtau, Min-Max
MEASURED_ATTRIBUTE: AUC

Requested field: AUC. Item: C[C@@H]1C[C@H]2[C@@H]3CCC4=CC(=O)C=C[C@]4(C)[C@@]3(Cl)[C@@H](O)C[C@]2(C)[C@@]1(OC(=O)c1ccco1)C(=O)CCl [Mometasone furoate]
0.0121 to 0.0725 ng·h/mL

###

# METHOD_NOTES: Example 7: Phase III clinical study, plasma pharmacokinetics of TP-1
# Format: in vivo, human
# CONDITIONS: human, plasma; patients receiving TP-1, Day 1; read-out: Tmax, Median (range)
MEASURED_ATTRIBUTE: Tmax (h)
Value expressed in h; do not type the unit.

Requested field: Tmax. Item: C[C@@H]1C[C@H]2[C@@H]3CCC4=CC(=O)C=C[C@]4(C)[C@@]3(Cl)[C@@H](O)C[C@]2(C)[C@@]1(OC(=O)c1ccco1)C(=O)CCl [Mometasone furoate]
1

Requested field: Tmax. Item: CN(C)CC/C=C1/c2ccccc2COc2ccc(CC(=O)O)cc21
1

###

# METHOD_NOTES: Example 7: Phase III clinical study, plasma pharmacokinetics of TP-1
# Assay type: in vivo, human
# CONDITIONS: human, plasma, olopatadine in plasma, patients receiving TP-1, Day 8 (steady state); read-out: AUCtau, Geo Mean (Geo CV%)
MEASURED_ATTRIBUTE: AUC

Requested field: AUC. Item: CN(C)CC/C=C1/c2ccccc2COc2ccc(CC(=O)O)cc21 [Olopatadine]
85.7 ng·h/mL

###

# METHOD_NOTES: Example 7: Phase III clinical study, plasma pharmacokinetics of TP-1
# Assay type: in vivo, human
# CONDITIONS: human, plasma, mometasone furoate in plasma, patients receiving TP-1, Day 8 (steady state); read-out: Cmax, Min-Max
MEASURED_ATTRIBUTE: Cmax

Requested field: Cmax. Item: C[C@@H]1C[C@H]2[C@@H]3CCC4=CC(=O)C=C[C@]4(C)[C@@]3(Cl)[C@@H](O)C[C@]2(C)[C@@]1(OC(=O)c1ccco1)C(=O)CCl [Mometasone furoate]
3.58 to 16.1 pg/mL

###

# METHOD_NOTES: Example 7: Phase III clinical study, plasma pharmacokinetics of TP-1
# Format: in vivo, human
# CONDITIONS: human, plasma, mometasone furoate in plasma, patients receiving TP-1, Day 8 (steady state); read-out: AUCtau, Mean (SD)
MEASURED_ATTRIBUTE: AUC (ng·h/mL)
Value expressed in ng·h/mL; do not type the unit.

Requested field: AUC. Item: C[C@@H]1C[C@H]2[C@@H]3CCC4=CC(=O)C=C[C@]4(C)[C@@]3(Cl)[C@@H](O)C[C@]2(C)[C@@]1(OC(=O)c1ccco1)C(=O)CCl [Mometasone furoate]
0.0584

###

# METHOD_NOTES: Example 11: single-dose cross-over study, pharmacokinetics of mometasone furoate
# Assay type: in vivo, human
# CONDITIONS: human, in vivo, inhaled or intranasal; mometasone furoate in fixed dose combination nasal spray, single dose
# Protocol: The pharmacokinetics of mometasone furoate in a fixed dose combination of mometasone furoate and olopatadine hydrochloride nasal spray was evaluated in a clinical trial. The clinical trial was a randomized, single-center, single-dose, open-label, three-period, six-sequence, cross-over study to evaluate three treatments administered by nasal spray. […]
MEASURED_ATTRIBUTE: Cmax (ng/mL)
Value expressed in ng/mL; do not type the unit.

Requested field: Cmax. Item: C[C@@H]1C[C@H]2[C@@H]3CCC4=CC(=O)C=C[C@]4(C)[C@@]3(Cl)[C@@H](O)C[C@]2(C)[C@@]1(OC(=O)c1ccco1)C(=O)CCl [Mometasone furoate]
0.0108

###

# METHOD_NOTES: Example 7: Phase III clinical study, plasma pharmacokinetics of TP-1
# Type: in vivo, human
# CONDITIONS: human, plasma, mometasone furoate in plasma, patients receiving TP-1, Day 8 (steady state); read-out: Cmax, Mean (SD)
MEASURED_ATTRIBUTE: Cmax (pg/mL)
Value expressed in pg/mL; do not type the unit.

Requested field: Cmax. Item: C[C@@H]1C[C@H]2[C@@H]3CCC4=CC(=O)C=C[C@]4(C)[C@@]3(Cl)[C@@H](O)C[C@]2(C)[C@@]1(OC(=O)c1ccco1)C(=O)CCl [Mometasone furoate]
9.92

###

# METHOD_NOTES: Example 7: Phase III clinical study, plasma pharmacokinetics of TP-1
# Type: in vivo, human
# CONDITIONS: human, plasma, olopatadine in plasma, patients receiving TP-1, Day 8 (steady state); read-out: Cmax, Mean (SD)
MEASURED_ATTRIBUTE: Cmax (ng/mL)
Value expressed in ng/mL; do not type the unit.

Requested field: Cmax. Item: CN(C)CC/C=C1/c2ccccc2COc2ccc(CC(=O)O)cc21
19.8

###

# METHOD_NOTES: Example 7: Phase III clinical study, plasma pharmacokinetics of TP-1
# Format: in vivo, human
# CONDITIONS: human, plasma, mometasone furoate in plasma, patients receiving TP-1, Day 1; read-out: Cmax, Min-Max
MEASURED_ATTRIBUTE: Cmax

Requested field: Cmax. Item: C[C@@H]1C[C@H]2[C@@H]3CCC4=CC(=O)C=C[C@]4(C)[C@@]3(Cl)[C@@H](O)C[C@]2(C)[C@@]1(OC(=O)c1ccco1)C(=O)CCl [Mometasone furoate]
2.67 to 12.8 pg/mL

###

# METHOD_NOTES: Example 7: Phase III clinical study, plasma pharmacokinetics of TP-1
# Format: in vivo, human
# CONDITIONS: human, plasma, olopatadine in plasma, patients receiving TP-1, Day 1; read-out: AUCtau, Mean (SD)
MEASURED_ATTRIBUTE: AUC (ng·h/mL)
Value expressed in ng·h/mL; do not type the unit.

Requested field: AUC. Item: CN(C)CC/C=C1/c2ccccc2COc2ccc(CC(=O)O)cc21
75.5

###

# METHOD_NOTES: Example 7: Phase III clinical study, plasma pharmacokinetics of TP-1
# Format: in vivo, human
# CONDITIONS: human, plasma, olopatadine in plasma, patients receiving TP-1, Day 8 (steady state); read-out: Cmax, Geo Mean (Geo CV%)
MEASURED_ATTRIBUTE: Cmax (ng/mL)
Value expressed in ng/mL; do not type the unit.

Requested field: Cmax. Item: CN(C)CC/C=C1/c2ccccc2COc2ccc(CC(=O)O)cc21
18.7

###

# METHOD_NOTES: Example 11: single-dose cross-over study, pharmacokinetics of mometasone furoate
# Type: in vivo, human
# CONDITIONS: human, in vivo, inhaled or intranasal; mometasone furoate in fixed dose combination nasal spray, single dose; read-out: AUC(0-infinity)
MEASURED_ATTRIBUTE: AUC(0-inf) (ng·h/mL)
Value expressed in ng·h/mL; do not type the unit.

Requested field: AUC(0-inf). Item: C[C@@H]1C[C@H]2[C@@H]3CCC4=CC(=O)C=C[C@]4(C)[C@@]3(Cl)[C@@H](O)C[C@]2(C)[C@@]1(OC(=O)c1ccco1)C(=O)CCl [Mometasone furoate]
0.104
